ASSAY EXPLANATION: Plasma pharmacokinetics of erlotinib, OSI-420 and BAS 100 after oral dosing in BALB/c mice
Format: in vivo
CONDITION NOTES: female, BALB/c, mouse, plasma, po, 10 mg/kg, plasma; erlotinib 10 mg kg^-1 p.o. alone (-BAS 100); BALB/c mice; read-out: HL λz (terminal half-life) (converted)
RECORDED ENDPOINT: half-life (h)

                            chemical_string  recorded_endpoint  result
0  C#Cc1cccc(Nc2ncnc3cc(OCCOC)c(OCCOC)cc23)c1          half-life     3.1

---

ASSAY EXPLANATION: 2-h plasma concentration of erlotinib in CYP3A4 transgenic mice
CONDITION NOTES: female, mouse, in vivo, po, 10 mg kg^-1
Experimental: BAS 100 was obtained from Bioavailabilty Systems (Cocoa Beach, FL, USA), and erlotinib and OSI-420 were obtained from Toronto Research Chemicals (North York, ON, Canada). […] Plasma concentrations of erlotinib and OSI-420 were measured as described previously ([Zhao et al, 2003]). Plasma concentrations of BAS 100 were measured by a novel liquid chromatography-tandem mass spectrometry method. […] The lower limit of quantitation was 10 ng ml^−1. […]
RECORDED ENDPOINT: concentration at 2 h (ng/mL)

                                   compound  result
0  C#Cc1cccc(Nc2ncnc3cc(OCCOC)c(OCCOC)cc23)c1 [Erlotinib]     929

---

ASSAY EXPLANATION: Plasma pharmacokinetics of erlotinib, OSI-420 and BAS 100 after oral dosing in BALB/c mice
Type: in vivo
CONDITION NOTES: female, BALB/c, mouse, plasma, po, 10 mg/kg, plasma; erlotinib 10 mg kg^-1 p.o. 30 min after BAS 100 10 mg kg^-1 p.o.; BALB/c mice; read-out: HL λz (terminal half-life) (converted)
RECORDED ENDPOINT: half-life (min)

>>> print(df.to_string())
                            chemical_string  unit_tag  result
0  C#Cc1cccc(Nc2ncnc3cc(OCCOC)c(OCCOC)cc23)c1       min     192

---

ASSAY EXPLANATION: Plasma pharmacokinetics of erlotinib, OSI-420 and BAS 100 after oral dosing in BALB/c mice
Assay type: in vivo
CONDITION NOTES: female, BALB/c, mouse, plasma, po, 10 mg/kg, plasma; erlotinib 10 mg kg^-1 p.o. 30 min after BAS 100 10 mg kg^-1 p.o.; BALB/c mice
RECORDED ENDPOINT: Cmax (ng/mL)

>>> df
                            chemical_string  unit_tag  result
0  C#Cc1cccc(Nc2ncnc3cc(OCCOC)c(OCCOC)cc23)c1     ng/mL    3950

---

ASSAY EXPLANATION: Plasma pharmacokinetics of erlotinib, OSI-420 and BAS 100 after oral dosing in BALB/c mice
Assay type: in vivo
CONDITION NOTES: female, BALB/c, mouse, plasma, po, 10 mg/kg; erlotinib 10 mg kg^-1 p.o. alone (-BAS 100); BALB/c mice
RECORDED ENDPOINT: Cmax (ng/mL)

                            chemical_string  recorded_endpoint  unit_tag  result
0  C#Cc1cccc(Nc2ncnc3cc(OCCOC)c(OCCOC)cc23)c1               Cmax     ng/mL    2320

---

ASSAY EXPLANATION: Plasma pharmacokinetics of erlotinib, OSI-420 and BAS 100 after oral dosing in BALB/c mice
Assay type: in vivo
CONDITION NOTES: female, BALB/c, mouse, plasma, po, 10 mg/kg; erlotinib 10 mg kg^-1 p.o. alone (-BAS 100); BALB/c mice
RECORDED ENDPOINT: AUC(0-t) (ng·h/mL)

>>> df
                            chemical_string  recorded_endpoint  result
0  C#Cc1cccc(Nc2ncnc3cc(OCCOC)c(OCCOC)cc23)c1           AUC(0-t)   18000

---

ASSAY EXPLANATION: Plasma pharmacokinetics of erlotinib, OSI-420 and BAS 100 after oral dosing in BALB/c mice
Format: in vivo
CONDITION NOTES: female, BALB/c, mouse, plasma, po, 10 mg/kg, plasma; erlotinib 10 mg kg^-1 p.o. 30 min after BAS 100 10 mg kg^-1 p.o.; BALB/c mice
RECORDED ENDPOINT: AUC(0-t) (ng·h/mL)

>>> print(df.to_string())
                            chemical_string  result
0  C#Cc1cccc(Nc2ncnc3cc(OCCOC)c(OCCOC)cc23)c1   38000

These measurements were taken from paper PMC2391127.
